Cited source: paper PMC8523698

# Target Entity: CYP2D6 (Homo sapiens)
# Sequence (P10635 whole entry): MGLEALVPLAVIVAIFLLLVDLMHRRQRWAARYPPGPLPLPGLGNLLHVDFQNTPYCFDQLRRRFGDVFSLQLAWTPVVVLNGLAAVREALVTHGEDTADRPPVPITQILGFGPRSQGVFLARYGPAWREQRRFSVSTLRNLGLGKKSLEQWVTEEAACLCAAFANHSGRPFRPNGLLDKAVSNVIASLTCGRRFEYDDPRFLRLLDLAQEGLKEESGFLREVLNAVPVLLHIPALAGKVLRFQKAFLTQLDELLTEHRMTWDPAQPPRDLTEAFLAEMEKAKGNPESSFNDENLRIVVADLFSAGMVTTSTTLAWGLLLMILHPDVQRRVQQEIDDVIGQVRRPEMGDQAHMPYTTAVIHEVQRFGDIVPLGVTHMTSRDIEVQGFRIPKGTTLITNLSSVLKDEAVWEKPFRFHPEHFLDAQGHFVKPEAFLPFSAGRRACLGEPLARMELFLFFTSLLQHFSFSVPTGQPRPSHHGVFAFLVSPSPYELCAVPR
# Protocol Text: Reversible CYP inhibition in human liver microsomes
# Test Settings: human, microsomes, pH 7.4, Percent of Control Activity, CYP 2D6, 200 µM, Zero-Minute Preincubation
Measured Parameter: activity at 200 µM (%)
# value in %; strip the unit string

Specify reported activity at 200 µM for the compound shown: COc1cccc2[nH]c(C(=O)N[C@@H](CC(C)C)C(=O)N[C@@H](C[C@@H]3CCNC3=O)C(=O)CO)cc12 78.8

---

# Protocol Text: Metabolic stability in pooled human liver microsomes (intrinsic clearance)
# Test Settings: both, pooled human liver microsomes, pH 7.5
Measured Parameter: microsomal CLint at 1 µM
Please format your answer as a value with the unit trailing.

Specify reported microsomal CLint at 1 µM for the compound shown: COc1cccc2[nH]c(C(=O)N[C@@H](CC(C)C)C(=O)N[C@@H](C[C@@H]3CCNC3=O)C(=O)CO)cc12 7.5 µL/min/mg
